Experiment: NCI Yeast Anticancer Drug Screen. Data for the cln2 rad14 strain (AID 165);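 also: 0% = growth equal to vehicle treated cultures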
Settings: S. cerevisiae cln2 rad14 strain, at 50.0 µM, hits give high values
Protocol: Growth inhibition of yeast strains with defined genetic alterations is measured as a screen for potential anti-cancer activity. Selected strains with alterations in DNA damage repair or cell cycle control were exposed to compounds and growth inhibition was measured relative to vehicle treated controls. The strain used in this assay is cln2 rad14
About 79,000 compounds went through this panel and 15% of them were active in at least one assay; those are over-represented in the sample as a whole.
Output Condition met for growth inhibition not less than 10%; output Condition not met otherwise.

Check the entry CC(=O)NC1=C(N2CCC2C)C(=O)c2ccccc2C1=O (centres undefined) : does growth inhibition equal or exceed 10%?
Condition not met

Reported growth inhibition reaches at least 10% for "CC(=O)Nc1cc2c(cc1Br)Cc1cc(Br)ccc1-2" ?
Condition not met

Does growth inhibition meet or surpass 10% for "c1ccc(-c2cc(-c3ccccc3)c3ccc4c(-c5ccccc5)cc(-c5ccccc5)c5ccc2c3c54)cc1" ?
Condition met

Given CCOC(=O)N1c2ccccc2SC1C#N (centres undefined) , state whether its growth inhibition is at least 10%.
Condition not met

Decide: is the reported value of growth inhibition for CC(NC(=O)OC(C)(C)C)C(=O)C(N)=O (centres undefined) equal to or greater than 10%?
Condition met

Determine whether this compound has growth inhibition no lower than 10%: "CCOC(=O)Cc1nc2ccc3c(c2[nH]c1=O)C(=O)c1ccccc1C3=O"
Condition met

Reported growth inhibition reaches at least 10% for C=C(c1ccccc1)N1N=NC2CCOC21 (centres undefined) ?
Condition not met

Reported growth inhibition reaches at least 10% for "CSC(N)=NC1CCCCC1" ?
Condition not met

====

Assay: NCI Yeast Anticancer Drug Screen. Data for the mec2-1 strain (AID 157)
Details: S. cerevisiae mec2-1 strain, at 50.0 µM, hits give high values
The panel holds about 79,000 compounds, 15% with a hit somewhere; the sample as a whole holds those more often.
Measured growth inhibition of individual entries
Record the value in %, omitting the unit from your answer.

Here is how some molecules turned out for growth inhibition.
CC(Oc1ccccc1-c1ccccc1)C(=O)O (stereo not drawn) : -22.2
O=C(O)C(CCOc1ccccc1)(CCc1ccccc1)C(=O)O : -10.8
COC(=O)c1cccc(Cl)c1C(=O)c1ccc(C)cc1C : -8.3
C#CCNC(=O)NCCCl : -3.45
C/C(N=NC(=S)N1CCC(C)CC1)=C1\C=CC=CN1O : 91.5

Any idea what growth inhibition was measured for CC1CN(C(c2ccccc2)c2ccccc2)CCN1CCO (stereo not drawn) ?
20.6

Report growth inhibition for "Cc1cc2c(=O)cc(-c3ccc(F)cc3)oc2c(C(=O)O)c1C" please.
-1.1

GET /values?readout=growth inhibition&item= "Brc1ccc[n+](CCc2ccccc2)c1"
15.1

// growth inhibition lookup, key: "C/C=C/C(=O)N(CC)CC"
-4.25

Returns the measured growth inhibition for the input molecule. Input: "[O-][N+](O)=C1c2ccccc2-c2ccccc21"
2.95

====

Experiment: NCI Yeast Anticancer Drug Screen. Data for the cln2 rad14 strain (AID 165);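 also: 0% = growth equal to vehicle treated cultures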
Conditions: S. cerevisiae cln2 rad14 strain, at 50.0 µM
Compounds without any hit were thinned out: in the full panel of roughly 79,000, 15% have a hit. The source made the active and inactive calls. Rule as the data show it: active = growth inhibition above about 70%; inactive = the rest.
Entry note: the call must match one of 1 for active, 0 for inactive

Illustrative cases are given below, each with its answer.
CC(C)(O)C1COC2=C1C(=O)c1ccccc1C2=O (centres undefined) : 0
CCOC(=O)CNC(=O)CNC(=O)CNS(=O)(=O)c1ccc(C)cc1 : 0
CCOC(=O)C1(C(=O)OCC)CC(CCC#N)(CCC#N)C(=O)C(CCC#N)(CCC#N)C1 : 0

Lab log entry: "COc1ccc(/C=C/C(=O)c2ccc(F)cc2)cc1" — outcome as called in the assay?
0

Identify the outcome logged in this assay for the molecule shown: "Cn1c(=O)c2[nH]c(CSc3ccccc3)nc2n(C)c1=O"
0

I would be grateful if you could indicate the recorded call for "O=C(CI)Nc1ccc2oc(=O)c(C(=O)O)cc2c1" .
0

I would be grateful if you could indicate the recorded call for "CCOC(CN(Cc1ccccc1)CC(OCC)OCC)OCC" .
0

Per the assay record, what outcome was assigned to "O=c1cc(-c2cccc(OC(F)(F)F)c2)[nH]c2cc3c(cc12)OCO3" ?
0

Please indicate how the test categorized "Cc1cc(OCCCC(=O)O)ccc1Cl" .
0

How did this test come out for CCC(C(C)O)[N+](=O)[O-] (centres undefined) ?
0

Recorded call for "O=S(=O)(c1ccc(Br)cc1)S(=O)(=O)c1ccc(Br)cc1" ?
0

# outcome recorded in this test, key = CCC(NC(C)c1ccccc1)C(O)c1ccc(OCc2ccccc2)c(OCc2ccccc2)c1 (centres undefined)
1

Field: outcome | Entry: "Cc1ccc(NC(=O)OCCN(C)C)cc1Cl"
0

Fill in: this test's call for "CCCCCCCCCCCC(=O)Oc1c(Cl)cc(Cl)c(OC(=O)C(=O)Oc2c(Cl)cc(Cl)c(OC(=O)CCCCCCCCCCC)c2Cl)c1Cl" is ___
0

Outcome? C=C1C(=O)[C@@]23CC1C(O)[C@@H](OC(C)=O)[C@@H]2C1(C)C(OC(C)=O)C[C@@H](OC(C)=O)C(C)(C)[C@@H]1C[C@H]3OC(C)=O (some centres undefined)
0

Data origin, for the record: PubChem BioAssay (NCI)
